target: GPR3 (Homo sapiens, UniProt P46089); construct: expressed in transfected cells; host or cells: CHO cells; assay: GPR3 antagonist functional cAMP assay (LANCE Ultra cAMP TR-FRET, CHO cells stably expressing GPR3); type: cell-based; details: CHO cells stably expressing GPR3, cAMP assay (Example 24)
Sequence (P46089 whole entry, species assumed): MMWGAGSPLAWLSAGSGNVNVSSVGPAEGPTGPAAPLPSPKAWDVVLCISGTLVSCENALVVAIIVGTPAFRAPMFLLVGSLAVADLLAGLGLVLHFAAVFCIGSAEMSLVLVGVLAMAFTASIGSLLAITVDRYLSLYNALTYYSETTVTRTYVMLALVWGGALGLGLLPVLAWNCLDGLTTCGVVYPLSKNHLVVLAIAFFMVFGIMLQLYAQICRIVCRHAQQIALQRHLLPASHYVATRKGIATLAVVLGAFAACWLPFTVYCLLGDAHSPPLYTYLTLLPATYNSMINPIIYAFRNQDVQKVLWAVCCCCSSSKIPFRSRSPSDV
quantity.measured: IC50

Form field IC50, entry Cn1cc(-c2nc3cnccc3nc2N2CCN(CC3CCCCO3)CC2)cn1 (stereo not shown) [Compound 246] : ≥ 30 µM

The measured IC50 associated with COc1ccc(OC2CCN(c3nc4c(nc3-c3cnn(C)c3)CN(C(C)=O)CC4)CC2)c(OC)c1 [Compound 426] reads 1 to 30 µM

Looking up C=CC(=O)N1CCc2nc(N3CCC(Oc4ccc(F)cc4F)CC3)c(-c3cn[nH]c3)nc2C1 [Compound 203] , I found its IC50 recorded as 1 to 30 µM

Next:
Recorded result, COc1cncc(-c2nc3cnc(CO)cc3nc2N2CCN(Cc3ccc(F)cc3F)CC2)n1 [Compound 95] , IC50: 1 to 30 µM

###

target: GPR6 (Homo sapiens); construct: expressed in transfected cells; host or cells: CHO cells; test: GPR6 antagonist functional cAMP assay (LANCE Ultra cAMP TR-FRET, CHO cells stably expressing GPR6); assay type: cell-based; conditions: procedure of Example 24
Sequence (P46095 whole entry): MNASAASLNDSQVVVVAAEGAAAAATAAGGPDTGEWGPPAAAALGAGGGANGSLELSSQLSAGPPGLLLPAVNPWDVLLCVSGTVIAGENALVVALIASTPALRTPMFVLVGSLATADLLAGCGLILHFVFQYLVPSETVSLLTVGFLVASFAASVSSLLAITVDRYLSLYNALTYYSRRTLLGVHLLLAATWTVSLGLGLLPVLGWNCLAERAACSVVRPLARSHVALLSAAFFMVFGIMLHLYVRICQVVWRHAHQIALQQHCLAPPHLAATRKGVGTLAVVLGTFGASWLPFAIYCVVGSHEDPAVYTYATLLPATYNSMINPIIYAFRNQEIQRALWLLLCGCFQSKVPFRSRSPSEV
quantity.measured: IC50

Per the records, this compound ( Cn1cc(-c2nc3cc([C@H](O)C(C)(C)O)ncc3nc2N2CCC(=Cc3ccc(F)cc3F)CC2)cn1 (single isomer, unassigned) [Compound 764] ) has IC50 equal to < 100 nM

Noted for CC(=O)N1CCc2nc(N3CCC(=C(C)c4ccc(F)cc4F)CC3)c(-c3cnn(C)c3)nc2C1 [Compound 718] : its IC50 reads 1000 to 30000 nM

Please look at the following compound next.
Short answer for CC(C)(O)[C@@H](O)c1cc2nc(-c3cnn(CF)c3)c(N3CCN(Cc4cc(F)ccc4F)CC3)nc2cn1 (single isomer, unassigned) [Compound 724] : IC50 was 100 to 1000 nM

###

target: GPR3 (Homo sapiens, UniProt P46089); construct: expressed in transfected cells; host or cells: CHO cells; test: GPR3 antagonist functional cAMP assay (LANCE Ultra cAMP TR-FRET, CHO cells stably expressing GPR3); assay type: cell-based; settings: procedure of Example 24
pIC50: −log10 of the molar value.
quantity.measured: pIC50

Worked examples follow.
Tested on GPR3 (Homo sapiens, UniProt P46089), the item "CC(=O)N1CCc2nc(N3CCN(Cc4cc(Cl)c(F)cc4F)CC3)c(-c3cnn(C)c3)nc2C1" showed pIC50 equal to 4.52 to 6.00

Record Cn1cc(-c2nc3cc([C@](C)(O)C(C)(C)O)ncc3nc2N2CCN(Cc3ccc(F)cc3F)CC2)cn1 (single isomer, unassigned) has GPR3 (Homo sapiens, UniProt P46089) pIC50 equal to 6.00 to 7.00

// returns pIC50 for CCn1cc(-c2nc3cnc([C@@](C)(O)C(C)(C)O)cc3nc2N2CCC(Oc3ccc(F)cc3F)CC2)cn1 (single isomer, unassigned) with GPR3 (Homo sapiens, UniProt P46089); value = 4.52 to 6.00

Bench note, GPR3 (Homo sapiens, UniProt P46089): entry CC(C)(O)[C@H](O)c1cc2nc(-c3cnn(CF)c3)c(N3CCC(Cc4ccc(F)cc4F)CC3)nc2cn1 (single isomer, unassigned) , its pIC50 = > 7.00

The observed pIC50 for "COc1ccc(C(=O)N2CCN(c3nc4c(nc3-c3cnn(C)c3)CN(C(C)=O)CC4)CC2)cc1" when tested with GPR3 (Homo sapiens, UniProt P46089) stands at 4.52 to 6.00

Continuing:
For the compound "CC(=O)N1CCc2nc(N3CCC(=Cc4ccccc4F)CC3)c(-c3cnn(C)c3)nc2C1" , the measured pIC50 on GPR3 (Homo sapiens, UniProt P46089) was 6.00 to 7.00

Assay GPR3 (Homo sapiens, UniProt P46089), sample "CCOc1ccc(CN2CCN(c3nc4c(nc3-c3cnn(C)c3)CN(C(C)=O)CC4)CC2)c(F)c1" , pIC50 read: 4.52 to 6.00

Entry "O=c1cc2nc(-c3cnn(CF)c3)c(N3CCN(Cc4ccc(F)cc4F)CC3)nc2c[nH]1" , GPR3 (Homo sapiens, UniProt P46089) data, pIC50 value: 4.52 to 6.00

pIC50 for GPR3 (Homo sapiens, UniProt P46089) with input "CC(=O)N1CCc2nc(N3CCN(Cc4ccccc4C#N)CC3)c(-c3cnn(C)c3)nc2C1" equals 4.52 to 6.00

Case "O=C(O)c1cc2nc(-c3cnn(CF)c3)c(N3CCN(Cc4ccc(F)cc4F)CC3)nc2cn1" , GPR3 (Homo sapiens, UniProt P46089), pIC50 recorded as 4.52 to 6.00
